# subjectOfTest: Cathepsin C (Homo sapiens, UniProt P53634)
# Construct: Reaction Biology Corporation (contract testing)
# Sequence (P53634 25-463, species assumed): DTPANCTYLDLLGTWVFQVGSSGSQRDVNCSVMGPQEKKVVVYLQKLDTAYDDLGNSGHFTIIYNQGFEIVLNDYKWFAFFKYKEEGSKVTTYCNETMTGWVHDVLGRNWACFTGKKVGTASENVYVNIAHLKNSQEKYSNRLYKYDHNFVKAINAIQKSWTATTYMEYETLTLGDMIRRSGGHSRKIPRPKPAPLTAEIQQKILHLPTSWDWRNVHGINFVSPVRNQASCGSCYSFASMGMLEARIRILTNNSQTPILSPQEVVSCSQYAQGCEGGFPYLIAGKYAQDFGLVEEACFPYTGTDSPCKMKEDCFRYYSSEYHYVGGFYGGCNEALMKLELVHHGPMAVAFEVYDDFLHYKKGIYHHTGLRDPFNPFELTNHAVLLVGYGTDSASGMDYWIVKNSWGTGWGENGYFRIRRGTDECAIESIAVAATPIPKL
# assay: Protease panel: Cathepsin C
# Format: biochemical
# measurementConditions: supplement panel table, test and control compound
propertyName: IC50 (µM)
State just the number; it will be interpreted in µM.

Form field IC50, entry `CC(C)C[C@H](NC(=O)[C@H]1O[C@@H]1C(=O)O)C(=O)NCCCCN=C(N)N` : 0.607

---

# subjectOfTest: MMP 7 (Homo sapiens)
# Sequence (P09237 95-267): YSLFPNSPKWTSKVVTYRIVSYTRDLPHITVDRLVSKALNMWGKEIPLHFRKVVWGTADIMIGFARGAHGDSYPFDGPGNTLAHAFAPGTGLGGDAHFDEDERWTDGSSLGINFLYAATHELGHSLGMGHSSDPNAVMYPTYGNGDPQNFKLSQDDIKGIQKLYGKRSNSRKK
# assay: Protease panel: MMP 7
# Format: biochemical
# measurementConditions: supplement panel table, test and control compound
propertyName: IC50 (µM)
State just the number; it will be interpreted in µM.

Form field IC50, entry CNC(=O)[C@H](Cc1c[nH]c2ccccc12)NC(=O)[C@@H](CC(=O)NO)CC(C)C [GM6001] : 0.00438

---

# assay: Intravenous/oral pharmacokinetics and tissue distribution in mice
# Format: in vivo
# measurementConditions: female, ICR, mouse, po, 100 mg/kg p.o., lung, read-out: T½, Lung (converted)
propertyName: half-life (min)
State just the number; it will be interpreted in min.

Form field half-life, entry `O=C(N[C@@H](Cc1ccccn1)C(=O)N[C@@H](CCc1ccccc1)B(O)O)c1cnccn1` : 18

---

# subjectOfTest: Plasma kallikrein (Homo sapiens)
# Construct: Reaction Biology Corporation (contract testing)
# Sequence (P03952 20-638, species assumed): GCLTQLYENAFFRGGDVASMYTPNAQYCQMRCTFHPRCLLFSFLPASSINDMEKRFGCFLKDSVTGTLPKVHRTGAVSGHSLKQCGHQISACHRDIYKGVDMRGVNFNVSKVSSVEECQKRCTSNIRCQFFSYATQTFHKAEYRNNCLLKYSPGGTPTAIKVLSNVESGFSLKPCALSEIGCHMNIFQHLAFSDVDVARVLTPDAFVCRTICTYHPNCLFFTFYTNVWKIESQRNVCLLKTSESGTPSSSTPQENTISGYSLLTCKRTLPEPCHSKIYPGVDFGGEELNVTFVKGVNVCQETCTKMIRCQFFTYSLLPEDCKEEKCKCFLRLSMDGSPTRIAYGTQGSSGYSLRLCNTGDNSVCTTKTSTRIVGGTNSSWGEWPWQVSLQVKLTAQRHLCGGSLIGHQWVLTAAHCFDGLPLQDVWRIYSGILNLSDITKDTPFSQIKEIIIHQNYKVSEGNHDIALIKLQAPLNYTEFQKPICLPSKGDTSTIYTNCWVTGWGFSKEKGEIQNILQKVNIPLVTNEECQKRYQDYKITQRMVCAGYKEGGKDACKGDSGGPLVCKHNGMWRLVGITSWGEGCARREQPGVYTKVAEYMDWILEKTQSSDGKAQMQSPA
# assay: Protease panel: Plasma kallikrein
# Format: biochemical
# measurementConditions: Table 6; 10-dose response, top 10 μM
propertyName: IC50 (µM)
State just the number; it will be interpreted in µM.

Form field IC50, entry O=C(N[C@@H](Cc1ccccn1)C(=O)N[C@@H](CCc1ccccc1)B(O)O)c1cnccn1 [Compound 58] : 4.4

---

# assay: Intravenous/oral pharmacokinetics and tissue distribution in mice
# Assay type: in vivo
# measurementConditions: female, ICR, mouse, po, 100 mg/kg p.o., plasma, read-out: AUC0-t(last), Plasma
propertyName: AUC(0-t)
Be sure to follow the number with its unit.

Form field AUC(0-t), entry `O=C(N[C@@H](Cc1ccccn1)C(=O)N[C@@H](CCc1ccccc1)B(O)O)c1cnccn1` : 22800 ng·h/mL

---

# assay: Intravenous/oral pharmacokinetics and tissue distribution in mice
# Format: in vivo
# measurementConditions: female, ICR, mouse, plasma, iv, 10 mg/kg, 10 mg/kg i.v., read-out: Vss
propertyName: Vd
Be sure to follow the number with its unit.

Form field Vd, entry `O=C(N[C@@H](Cc1ccccn1)C(=O)N[C@@H](CCc1ccccc1)B(O)O)c1cnccn1` : 2.1 L/kg

---

# assay: Intravenous/oral pharmacokinetics and tissue distribution in mice
# Type: in vivo
# measurementConditions: female, ICR, mouse, plasma, iv, 10 mg/kg, 10 mg/kg i.v., read-out: Vz
propertyName: Vd (L/kg)
State just the number; it will be interpreted in L/kg.

Form field Vd, entry `O=C(N[C@@H](Cc1ccccn1)C(=O)N[C@@H](CCc1ccccc1)B(O)O)c1cnccn1` : 2.5

The reported measurements were obtained from paper PMC5404560.
